# Test details: MicroPET blood and normal organ uptake in T47D and MDA-MB-435 tumor-bearing nude mice
# Run parameters: nude, mouse, blood, iv, total radioactivity, Blood uptake, average of eight mice, 24 h
Observation type: tissue uptake at 24 h (%ID/g)

>>> assay_result("CSCC[C@H](NC(=O)[C@H](CC(C)C)NC(=O)[C@H](Cc1c[nH]cn1)NC(=O)CNC(=O)[C@@H](NC(=O)[C@H](C)NC(=O)[C@H](Cc1c[nH]c2ccccc12)NC(=O)[C@H](CCC(N)=O)NC(=O)CCCCCNC(=O)CC[C@H](NC(=S)Nc1ccc(C[C@H]2CN(CC(=O)O)CCN(CC(=O)O)CCN2CC(=O)O)cc1)C(=O)NCCCC[C@@H]1NC(=O)[C@@H](Cc2ccc(O)cc2)NC(=O)[C@H](CC(=O)O)NC(=O)CNC(=O)[C@H](CCCNC(=N)N)NC1=O)C(C)C)C(N)=O [^64Cu-NOTA-RGD-BBN, metal not drawn]")
0.36
